Cited source: patent US20180171001A1

- experimental_target: Env of HIV-1 strain PVO.4 (HIV-1)
- protocol: cell-based or functional assay
value_kind: neutralization IC50 (µg/mL)
Please respond with the number in µg/mL and leave the unit unwritten.

**Query** For the binder γ52κ61 (antibody, V domains shown) VH: QIHLVQSGTEVKKPGSSVTVSCKAYGVNTFGLYAVNWVRQAPGQSLEYIGQIWRWKSSASHHFRGRVLISAVDLTGSSPPISSLEIKNLTSDDTAVYFCTTTSTYDRWSGLHHDGVMAFSSWGQGTLISVSA VL: DIQMTQSPSTLSASIGDTVRISCRASQSITGNWVAWYHQRPGKAPRLLIYRGAALLGGVPSRFSGSAAGTDFTLTIGNLQAEDFGTFYCQQYDTYPGTFGQGTKVEVKR , what neutralization IC50 is on record?
**Result** 0.078

**Query** Which neutralization IC50 value is on record for 8ANC195 IgG (antibody, V domains shown) VH: QIHLVQSGTEVKKPGSSVTVSCKAYGVNTFGLYAVNWVRQAPGQSLEYIGQIWRWKSSASHHFRGRVLISAVDLTGSSPPISSLEIKNLTSDDTAVYFCTTTSTYDKWSGLHHDGVMAFSSWGQGTLISVSA VL: DIQMTQSPSTLSASIGDTVRISCRASQSITGNWVAWYQQRPGKAPRLLIYRGAALLGGVPSRFSGSAAGTDFTLTIGNLQAEDFGTFYCQQYDTYPGTFGQGTKVEV ?
**Result** 0.52
